B1: library; a variant is named by its letters at N, in order (parent)
chain: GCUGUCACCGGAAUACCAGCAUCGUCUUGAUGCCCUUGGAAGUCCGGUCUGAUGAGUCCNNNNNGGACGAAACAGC

Variants of: B1
Assay: FACS-Seq fitted mean relative fluorescence mCherry/BFP with ligand (log10 relative fluorescence); ligand concentration (+) FACS-Seq: 1 mM; higher = higher reporter protein expression
Conditions: HEK293T, ligand present: yes
Listed next: entries and their corresponding FACS-Seq fitted mean (log10).
Write the value as a bare number.

See these solved cases before continuing.
Record Sequence	Recorded Value
GCUGUCACCGGAAUACCAGCAUCGUCUUGAUGCCCUUGGAAGUCCGGUCUGAUGAGUCCAUUUUGGACGAAACAGC [AUUUU]	0.194
GCUGUCACCGGAAUACCAGCAUCGUCUUGAUGCCCUUGGAAGUCCGGUCUGAUGAGUCCAUGUCGGACGAAACAGC [AUGUC]	0.935
GCUGUCACCGGAAUACCAGCAUCGUCUUGAUGCCCUUGGAAGUCCGGUCUGAUGAGUCCUGCAUGGACGAAACAGC [UGCAU]	1.3

Let us examine a further case.
[ask] Item under review: GCUGUCACCGGAAUACCAGCAUCGUCUUGAUGCCCUUGGAAGUCCGGUCUGAUGAGUCCGUAGAGGACGAAACAGC [GUAGA] . Reported FACS-Seq fitted mean (log10)?
[reply] 0.935
